- TESTED SYSTEM: Procathepsin L (Homo sapiens)
- Sequence (P07711 whole entry): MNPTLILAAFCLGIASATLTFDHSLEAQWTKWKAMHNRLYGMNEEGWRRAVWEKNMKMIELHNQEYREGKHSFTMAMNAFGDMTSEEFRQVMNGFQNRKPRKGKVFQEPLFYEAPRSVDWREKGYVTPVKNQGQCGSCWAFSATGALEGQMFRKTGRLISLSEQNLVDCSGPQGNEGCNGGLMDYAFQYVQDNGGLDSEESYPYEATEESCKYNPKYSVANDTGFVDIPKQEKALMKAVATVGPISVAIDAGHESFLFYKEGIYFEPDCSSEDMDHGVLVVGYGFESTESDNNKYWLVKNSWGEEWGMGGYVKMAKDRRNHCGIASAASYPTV
Field: Ki. Provide a value for each of the molecules that follow.
Kindly report the value followed by its unit.

CC(C)(C)OC(=O)N[C@H](C(=O)N1[C@H](C(=O)OCc2ccccc2)[C@H]1C(=O)OCc1ccccc1)N1CCCCC1; 6.4 µM

Proceed to the following item.
Exercise: If you can, please state the reported Ki value of CCOC(=O)[C@H]1[C@H](C(=O)OCC)N1C(=O)[C@@H](NC(=O)OC(C)(C)C)C(C(C)C)N1CCC1 (some centres not stated) .
Solution: 4.8 µM

---

- TESTED SYSTEM: Replicase polyprotein 1a (Severe acute respiratory syndrome-related coronavirus) (UniProt P0C6U8)
- ASSAY: Inhibition of Mpro in SARS-CoV at 100 uM in FRET-based assay
MEASUREMENT TYPE: inhibition
Kindly report the value followed by its unit.

CC(C)[C@H](NC(=O)C1C(c2ccccc2)N1Cc1ccccc1)C(=O)OCc1ccccc1 (stereo partly specified); 22%
CC[C@H](C)[C@@H](C(=O)OCc1ccccc1)N1CC1C(=O)OC (stereo partly specified); 30%
COC(=O)CN1CC1C(=O)OC (stereo unspecified); 30%

I need inhibition for every entry listed below, if you could help.
1. C[C@H]1[C@@H](C(=O)N[C@@H](Cc2ccccc2)C(=O)OCc2ccccc2)N1Cc1ccccc1 (stereo partly specified)
2. COC(=O)C1CN1CC(=O)OCc1ccccc1 (stereo unspecified)
3. CCOC(=O)[C@H]1N[C@@H]1C(=O)NCC(=O)NCC(=O)OCc1ccccc1

Solution:
["24%", "26%", "54%"]
